- Test system: CRF-binding protein / CRF receptor 2 complex (human)
- Protocol Details: agonists of CRF-BP/CRF-R2 complex, primary screen, cell-based, HEK293, calcium dye fluorescence, uHTS (AID 588473)
- Conditions Used: calcium dye fluorescence (FLIPR), at 13.2 µM, percent of saturating CRF peptide response
The campaign covered roughly 350,000 compounds. About 1,600 (0.46%) were called active.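 How the source made its calls: active means activation of at least 50%, plus an integration ratio under a set limit after plate pattern correction; inactive means the rest.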 Many of the other results were omitted from the sample, so actives are more common in it than they were.
// classify into Yes for active, No for inactive

Cc1ccnc2nc(C(=O)OCC(=O)N(CC(C)C)CC(C)C)nn12 | No
Nc1nc(SCC(=O)NCCN2CCOCC2)nc2sc3c(c12)CCC3 | No
COC(=O)C1(O)CC(C(C)C)=NN1C(=O)c1ccc(Cl)cc1 (configuration not stated) | No
NS(=O)(=O)c1ccc(CNC(=S)NC(=O)c2ccco2)cc1 | No
C=C(C)CSc1nc(N)c2c3c(sc2n1)CCC3 | Yes

Q: // param item: CCN(CC)c1ccc2oc(=O)c(C)nc2c1 ; yields the recorded call
A: Yes

Q: Repeat with Nc1c(C(=O)c2cccs2)sc2nsc(SCCN3CCCCC3)c12
A: Yes

Q: Another compound: CN(Cc1cc2cc(F)ccc2[nH]1)Cc1nc(-c2cnccn2)no1
A: No

Q: Next entry: O=C(N/N=C/c1cc(Br)c(O)c([N+](=O)[O-])c1)C(O)(c1ccccc1)c1ccccc1
A: No

Q: Cool, now COc1ccc(C(=O)NC(=S)NNC(=O)CCc2ccccc2)cc1
A: Yes
